// values below are reported cell viability
System: NCI-H2228 parental
EXPERIMENT: cell viability relative to vehicle (fraction of vehicle); higher = less growth inhibition
COND: 100 nM; treatment time 6 days
Structures can show the parent of a compound that is named as a salt. Over roughly 2,800 compounds, “cell viability relative to vehicle” has its median near 1.1; the lowest 2% begin near 0.19. This excerpt belongs to a sample that is enriched for the lowest values.

molecule=CC(=O)O[C@H]1C(=O)[C@@]2(C)[C@H]([C@H](OC(=O)c3ccccc3)[C@]3(O)C[C@H](O)C(C)=C1C3(C)C)[C@]1(OC(C)=O)CO[C@@H]1C[C@@H]2O endpoint_label="cell viability" result=0.968

Please look up its cell viability: C/C=C(\C)C(=O)N[C@@H](c1ccccc1)[C@@H](O)C(=O)O[C@H]1C[C@@]2(O)[C@@H](OC(=O)c3ccccc3)[C@@H]3[C@]4(OC(C)=O)CO[C@@H]4C[C@H](O)[C@@]3(C)C(=O)[C@H](OC(C)=O)C(=C1C)C2(C)C
0.129

Same question for CC(=O)OC12COC1CC(O)C1(C)C(=O)C(O)C3=C(C)C(O)CC(O)(C(OC(=O)c4ccccc4)C21)C3(C)C (stereo not drawn) please.
1.13

Field entry: O=C(O)CNC(=O)C1C(=O)N(C2CCCCC2)C(=O)N(C2CCCCC2)C1=O
1.04

Entry to check: C=C1CC[C@H]2[C@@H](/C=C(\C)C(=O)[C@@]3(O)C[C@H](C)[C@H](O)[C@@H]3[C@@H]1O)C2(C)C
1.09

Try this molecule next: Cn1c(CCCCCCC(=O)NO)nc2cc(N(CCCl)CCCl)ccc21
1.12

Also check COc1cc([C@@H]2c3cc4c(cc3[C@H](O)[C@H]3COC(=O)[C@H]23)OCO4)cc(OC)c1O
0.68

Queued: COc1ccc(/C=C2\CCCN=C2c2cccnc2)c(OC)c1 [GTS 21 dihydrochloride]
1.13

Now the same for C[C@@]12C[C@@H](c3ccoc3)OC(=O)[C@@H]1CC[C@]1(C)[C@H]2[C@@H]2C=C[C@@]1(O)C(=O)O2
1.06

Moving on to the next molecule: CC(C)[C@H](N)C(=O)N1CCC[C@H]1B(O)O [Talabostat mesylate]
0.987

Moving on to CC1(C)C(C(=O)Nc2ccc(S(=O)(=O)c3ccc(NC(=O)C4C(C)(C)C4(C)C)cc3)cc2)C1(C)C
0.839

Next record, please: CC(=O)OC(C)(C)/C=C/C(=O)[C@](C)(O)[C@H]1[C@H](O)C[C@@]2(C)[C@@H]3CC=C4[C@H](C[C@H](O)C(=O)C4(C)C)[C@]3(C)C(=O)C[C@]12C
0.223

Further, for C[C@]12CC[C@H](O)C[C@H]1CC[C@@H]1[C@@H]2CC[C@]2(C)[C@@H](c3ccc(=O)oc3)CC[C@]12O ?
0.423

###

# reported cell viability; entries follow
Tested on: NCI-H2228 parental
EXPERIMENT: cell viability relative to vehicle (fraction of vehicle); NCI-H2228 is an ALK-positive lung cancer line and DTP means drug-tolerant persister; higher = less growth inhibition
COND: 100 nM; treatment time 6 days
In all, about 2,800 compounds were measured (“cell viability relative to vehicle”: median about 1.1, lowest 2% from about 0.19 on). The full list was thinned out, with the lowest values kept by preference.
Answer using only a numeral; do not append any unit.

compound=CCc1c2c(nc3ccccc13)-c1cc3c(c(=O)n1C2)COC(=O)[C@]3(O)CC target_or_system="NCI-H2228 parental" quantitative_readout=0.054
compound="COc1cc([C@@H]2c3cc4c(cc3[C@@H](O)[C@H]3COC(=O)[C@H]23)OCO4)cc(OC)c1O [4'-Demethylepipodophyllotoxin]" target_or_system="NCI-H2228 parental" quantitative_readout=0.402
compound="Cn1c(COP(=O)(NCCBr)NCCBr)cnc1[N+](=O)[O-] [Evofosfamide]" target_or_system="NCI-H2228 parental" quantitative_readout=1.15
compound=C/C(=C\c1csc(C)n1)[C@@H]1C[C@@H]2O[C@]2(C)CCC[C@H](C)[C@H](O)[C@@H](C)C(=O)C(C)(C)[C@@H](O)CC(=O)O1 target_or_system="NCI-H2228 parental" quantitative_readout=0.141
compound=C/C(=C\c1csc(C)n1)[C@@H]1C[C@@H]2O[C@@H]2CCC[C@H](C)[C@H](O)[C@@H](C)C(=O)C(C)(C)[C@@H](O)CC(=O)O1 target_or_system="NCI-H2228 parental" quantitative_readout=0.0991
compound=CN[C@@H](Cc1c[nH]c2ccccc12)C(=O)O target_or_system="NCI-H2228 parental" quantitative_readout=1.08
compound=CC1(C)C(=O)N(c2ccc(C#N)c(C(F)(F)F)c2)C(=O)N1CCCCO target_or_system="NCI-H2228 parental" quantitative_readout=1.27

// next item, cell viability requested
Reported cell viability, compound COc1ccc(/C=C/c2cc(OC)cc(OC)c2)cc1 : ____
1.05
